- TESTED_ON: Proteasome Macropain subunit MB1 (Homo sapiens, UniProt P28074)
- Sequence (P28074 whole entry): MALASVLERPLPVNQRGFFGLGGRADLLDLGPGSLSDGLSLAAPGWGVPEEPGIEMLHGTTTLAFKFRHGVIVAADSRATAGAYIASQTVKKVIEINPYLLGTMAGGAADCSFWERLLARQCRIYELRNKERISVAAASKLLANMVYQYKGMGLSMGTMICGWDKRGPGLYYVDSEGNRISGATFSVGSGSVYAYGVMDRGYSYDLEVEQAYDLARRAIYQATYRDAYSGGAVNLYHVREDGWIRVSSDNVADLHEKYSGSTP
- RUN_DESCRIPTION: Inhibition of proteasome beta-5 (unknown origin)
VALUE_TYPE: pKi
// pKi is dimensionless: -log10 of concentration (M)

Looking up `CC(C)[C@H](NC(=O)N[C@H](C(=O)N[C@H]1/C=C/CCNC(=O)/C=C/[C@H](C(C)C)NC1=O)C(C)C)C(=O)O` , I found its pKi recorded as 6.07
